Origin of measurements: PubChem BioAssay (NCI)

Tested on: SN12C renal
Test: NCI tumour cell line growth inhibition, 48 h
Below, each of the molecules is paired with its reported GI50 value.

Look over these answered cases.
O=C([O-])CC(=O)[O-].[NH-][C@@H]1CCCC[C@H]1[NH-].[Pt+4]	15 µM
CCC1=C(CC2NCCc3ccccc32)CC2c3cc(OC)c(OC)cc3CCN2C1 (centres undefined)	4.92 µM
COC(=O)[C@H](Cc1cn(C)cn1)NC(=O)[C@H](Cc1ccccc1)NC(=O)Nc1cc(C(F)(F)F)cc(C(F)(F)F)c1	11.7 µM

Now for the molecule whose GI50 we want.
What value of measured GI50 is listed for COc1c(N2CCN(CN3C(=O)C(=Nc4ccc(S(=O)(=O)Nc5ncccn5)cc4)c4cc(Cl)ccc43)C(C)C2)c(F)cc2c(=O)c(C(=O)O)cn(C3CC3)c12 (centres undefined) ?
10.6 µM
